test system: MOLT-4 leukemia; test: NCI-60 one-dose screen, 48 h (100 = growth as untreated, 0 = no growth, -100 = all killed); settings: 10 µM unless noted
The panel holds about 83,000 compounds, 20% with a hit somewhere; the sample as a whole holds those more often.
Listed molecules paired with reported growth
Please respond with the number in % and leave the unit unwritten.

# example entries with known answers
- molecule: "O=C(O)c1ccc(-n2cc(CNc3ccc(Cl)cc3)c(-c3ccc(F)cc3)n2)cc1"
  growth / %: 85.4
- molecule: "Cn1c(SC(C(=O)Nc2ccc(F)cc2)c2ccccc2)nc2ccccc2c1=O (stereo not given)"
  growth / %: 101
- molecule: "CCCCCCNC(=O)Oc1ccc(/C(=C(\\C)c2ccc(OC)cc2)c2ccc(OCCN(C)C)cc2)cc1"
  growth / %: 44.5

Lab note: "CS(=O)(=O)c1nccc(-c2c(-c3ccc(F)c(OCc4ccccc4)c3)nc3sccn23)n1" gave growth of 74

Lab note: "O=C(CCCCCCN1CC(=O)N2[C@@H](c3cc(F)cc(F)c3)c3[nH]c4ccccc4c3C[C@H]2C1=O)NO" gave growth of 14.2

Lab note: "O=C(C[n+]1ccnc2ccccc21)c1ccc(O)c(O)c1" gave growth of 11.6

---

System: NCI-H226 lung
Assay: NCI-60 one-dose screen, 48 h
Conditions: 10 µM unless noted
Protocol: Growth inhibition of the NCI-H226 human Non-Small Cell Lung tumor cell line is measured as a screen for anti-cancer activity. Cells are grown in 96 well plates and exposed to the test compound for 48 hours. Compounds are tested at a single concentration, which is 10^-5 M for most compounds. The reported endpoint is percent growth (GI% or GIPRCNT), where numbers from 0 - 100% represent growth inhibition, and numbers from -100% - 0 represent cell death. […]
The panel holds about 83,000 compounds, 20% with a hit somewhere; the sample as a whole holds those more often. Activity calls are given as the source filed them. The calls were made as follows: active = growth percent below 10; inactive = the rest.
Please answer using one outcome listed in active, inactive

Consider the worked cases shown below.
- compound: "O=C(CCCCCCN1CC(=O)N2[C@@H](c3ccccc3)c3[nH]c4ccccc4c3C[C@H]2C1=O)NO"
  label-value: "inactive"
- compound: "CC(=O)Nc1ccc(NC(=O)Nc2cccc(-c3nc(-c4ccc(NC(=O)c5cccnc5)cc4Cl)no3)c2)cc1C(F)(F)F"
  label-value: "active"
- compound: "CCN(CC)c1ccc2cc(C(=O)NCCOCCOCCOCCn3cc(CCC(=O)Nc4ccc(C(=O)c5ccc(NC(=O)OC(C)(C)C)cc5)cc4)nn3)c(=O)oc2c1"
  label-value: "inactive"
- compound: "N#C/C(=C\\c1ccc(-c2ccc(F)cc2)o1)C(=O)Nc1ncc(Cc2ccc(Cl)cc2Cl)s1"
  label-value: "inactive"
- compound: "c1ccc(-c2n(Cc3ccc4ccccc4c3)c3c4ccccc4c4ccccc4c3[n+]2Cc2ccc3ccccc3c2)cc1"
  label-value: "active"
- compound: "CCOC(=O)Nc1cccc(-n2cnc3cc(-c4ccc(O)cc4)ccc32)c1"
  label-value: "inactive"
- compound: "COc1ccc(N)cc1C(=O)Nc1cccc(-c2cc(=O)c3c(OC)c(OC)c(OC)cc3o2)c1"
  label-value: "inactive"

Then this compound:
Exam item: Hey, what did the test say about CCOC(=O)/C(F)=C/C1CC1C1CCCCC1 (stereo not drawn) ?
Marked response: inactive

---

system: OVCAR-5 ovarian; experiment: NCI-60 one-dose screen, 48 h (100 = growth as untreated, 0 = no growth, -100 = all killed); conditions: 10 µM unless noted
The panel holds about 83,000 compounds, 20% with a hit somewhere; the sample as a whole holds those more often. Activity calls are given as the source filed them. How the source made its calls: active means growth percent below 10; inactive means the rest.
Listed molecules paired with reported growth

- molecule: "CCOC(=O)c1c(NC(=O)c2ccc(F)cc2F)sc2c1CCC(=O)C2"
  test-value: "104% (inactive)"
- molecule: "CC1(C)CC[C@]2(C(=O)O)CC[C@]3(C)C(=CCC4[C@@]5(C)C[C@@H](O)[C@@H]6OC(c7cccc([N+](=O)[O-])c7)OC[C@@]6(C)C5CC[C@]43C)C2C1 (some centres undefined)"
  test-value: "97.2% (inactive)"

# "CSc1ccc(/C(=N/N=C(N)N)c2ccccc2)cc1" with OVCAR-5 ovarian: growth is 48.3% (inactive)

# COc1ccc(Oc2ccc(C3CC(c4cc(OC)c(OC)c(OC)c4)=NN3C(C)=O)cc2)cc1 (centres undefined) with OVCAR-5 ovarian: growth is 50.2% (inactive)

# "CCOC(=O)c1ccc(N/C=C/C(=O)c2ccccc2)cc1" with OVCAR-5 ovarian: growth is 101% (inactive)

# "CS(=O)(=O)c1nccc(-c2c(-c3ccc(F)c(OCCc4ccc(F)cc4)c3)nc3sccn23)n1" with OVCAR-5 ovarian: growth is 93.2% (inactive)

# "COC1=C(c2ccccc2)C(=O)C(OC)=C(c2ccccc2)C1=O" with OVCAR-5 ovarian: growth is 119% (inactive)

# "O=C(c1ccc(O)cc1)[C@@H]1[C@@H]2CCCN2[C@@]2(C(=O)N(C(=O)c3ccc(F)cc3)c3ccccc32)[C@H]1c1ccc(F)cc1" with OVCAR-5 ovarian: growth is 111% (inactive)

# "COc1ccc([C@H]2[C@H](O)C(=O)N2c2cc(OC)c(OC)c(OC)c2)cc1" with OVCAR-5 ovarian: growth is 29.5% (inactive)

# "Cc1nn(-c2ccc(Br)cc2)c2nc(CCl)[nH]c(=O)c12" with OVCAR-5 ovarian: growth is 102% (inactive)
